Can you tell me growth at 0.1 µM for the items I'm about to list?
system: MDA-MB-231; assay: Growth inhibition of human MDA-MB-231 cells assessed as cell growth at 0.1 uM incubated for 48 hrs by sulforhodamine B assay relative to control; assay type: functional; conditions: MDA-MB-231, 48 h, read-out: Activity
Dear colleague, please return just the value in %, with no unit written.

Challenge: Form field: reported growth at 0.1 µM of COc1cc(Cl)cc(-c2nn(-c3cccc(NC(=O)Nc4cc(C(F)(F)F)cc(C(F)(F)F)c4)c3)cc2-c2ccncc2)c1
Response given: 90

Challenge: Dear colleague, I am looking for the recorded growth at 0.1 µM of the following compound: O=C(Nc1cccc(-n2cc(-c3ccncc3)c(-c3cc(O)cc(Cl)c3)n2)c1)c1ccc(N2CCOCC2)c(C(F)(F)F)c1
Response given: 92

Challenge: Reported growth at 0.1 µM for COc1cc(Cl)cc(-c2nn(-c3cccc(NC(=O)c4cccc(C(F)(F)F)c4)c3)cc2-c2ccncc2)c1 : what is it?
Response given: 90
